Every entry's value here was drawn from patent US20230331803A1.

substances and their reported half-life
# measurement.protocol: Pharmacokinetic studies in Beagle dogs after oral administration of SNAC-based tablets
# Format: in vivo
# condition.details: male, Beagle, dog, in vivo, po, T½ (hr)
Starred links: 1 amine or outer side, 2 acyl side, 3 side chain; linkers in the order of their positions; H or OH if unused. Non-standard residues stand in square brackets, D forms with d. Groups on a side chain read outwards from the residue. *: point of attachment. C20 diacid = O=C(O)CCCCCCCCCCCCCCCCCCC(=O)*; C16 diacid = O=C(O)CCCCCCCCCCCCCCC(=O)*; γGlu = O=C(O)[C@H](CCC(=O)[*:2])N[*:1]; Trx = NC[C@H]1CC[C@H](C(=O)O)CC1; AEEA = NCCOCCOCC(=O)O; Aib = CC(C)(N)C(=O)O
Answer in h, number only, no unit symbol.

# example entries with known answers
substance | property.measured | measured.number
H-H[Aib]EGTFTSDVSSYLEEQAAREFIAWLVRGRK([AEEA-AEEA-γGlu-C20 diacid])GGGGEASELSTAALGRLSAELHELATLPRTETGSGSP-NH2 [Compound 0502] | half-life | 66
H-H[Aib]EGTFTSDVSK([AEEA-AEEA-γGlu-C16 diacid])YLEEQAARK([AEEA-AEEA-γGlu-C16 diacid])FIAWLVRGRQEASELSTAALGRLSAELHELATLPRTETGSGSP-NH2 [Compound 0578] | half-life | 90

Shift focus to the following entry.
// lookup half-life for H-H[Aib]EGTFTSDVSSYLEEK([AEEA-AEEA-γGlu-Trx-C20 diacid])AAREFIAWLVRGRGGGGEASELSTAALGRLSAELHELATLPRTETGSGSP-NH2 [Compound 0265]
16
